system: 817829-284-R-J1-PDC complex spheroids, viability; assay: Anticancer human tumor 817829-284-R-J1-PDC patient-derived colon adenocarcinoma cell line growth inhibition [CLK]; conditions: curve of first compound; second compound 0.1 µM;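 note: spheroids exposed to the agents for seven days before readout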
pIC50: −log10 of the molar value.
Measurement Kind: pIC50

>>> recorded_measurement("Nc1ccn(C2OC(CO)C(O)C2(F)F)c(=O)n1 (stereo unspecified) + CN1CCN(c2cc(C(=O)Nc3cc4cc(-c5cnn(C)c5)ccc4cn3)ccn2)CC1")
"> 7.50"
>>> recorded_measurement("COc1c(OCCCN2CCOCC2)ccc2c3n(c(=NC(=O)c4cnc(N)nc4)nc12)CCN3 + CN1CCN(c2cc(C(=O)Nc3cc4cc(-c5cnn(C)c5)ccc4cn3)ccn2)CC1")
"> 8.50"
>>> recorded_measurement("CC(C)CC(NC(=O)C(Cc1ccccc1)NC(=O)c1cnccn1)B(O)O (stereo unspecified) + CN1CCN(c2cc(C(=O)Nc3cc4cc(-c5cnn(C)c5)ccc4cn3)ccn2)CC1")
"> 9.02"
>>> recorded_measurement("CC1COCCN1c1cc(C2(S(C)(=N)=O)CC2)nc(-c2ccnc3[nH]ccc23)n1 (stereo unspecified) + CN1CCN(c2cc(C(=O)Nc3cc4cc(-c5cnn(C)c5)ccc4cn3)ccn2)CC1")
"> 7.50"
>>> recorded_measurement("C=CC(=O)N1CCN(c2nc(=O)n(-c3c(C)ccnc3C(C)C)c3nc(-c4c(O)cccc4F)c(F)cc23)C(C)C1 (stereo unspecified) + CNC(=O)c1ccc(Nc2nc(OC3CCCC3)c3c(-c4ccc5nc(C)oc5c4)c[nH]c3n2)c(OC)c1")
"> 7.50"
>>> recorded_measurement("CCc1c2c(nc3ccc(O)cc13)-c1cc3c(c(=O)n1C2)COC(=O)[C@]3(O)CC + CNC(=O)c1ccc(Nc2nc(OC3CCCC3)c3c(-c4ccc5nc(C)oc5c4)c[nH]c3n2)c(OC)c1")
"> 8.50"
>>> recorded_measurement("NC(=O)C(=Cn1cnc(-c2cc(C(F)(F)F)cc(C(F)(F)F)c2)n1)c1cncnc1 + CN1CCN(c2cc(C(=O)Nc3cc4cc(-c5cnn(C)c5)ccc4cn3)ccn2)CC1")
"> 8.02"
>>> recorded_measurement("CCCS(=O)(=O)Nc1ccc(F)c(C(=O)c2c[nH]c3ncc(-c4ccc(Cl)cc4)cc23)c1F + CN1CCN(c2cc(C(=O)Nc3cc4cc(-c5cnn(C)c5)ccc4cn3)ccn2)CC1")
"> 7.50"
>>> recorded_measurement("Nc1ccn(C2OC(CO)C(O)C2(F)F)c(=O)n1 (stereo unspecified) + CNC(=O)c1ccc(Nc2nc(OC3CCCC3)c3c(-c4ccc5nc(C)oc5c4)c[nH]c3n2)c(OC)c1")
"> 7.50"
>>> recorded_measurement("CC1(C)CCC(CN2CCN(c3ccc(C(=O)NS(=O)(=O)c4ccc(NCC5CCOCC5)c([N+](=O)[O-])c4)c(Oc4cnc5[nH]ccc5c4)c3)CC2)=C(c2ccc(Cl)cc2)C1 + CN1CCN(c2cc(C(=O)Nc3cc4cc(-c5cnn(C)c5)ccc4cn3)ccn2)CC1")
"> 7.50"
>>> recorded_measurement("Cn1ncnc1[C@H]1c2n[nH]c(=O)c3cc(F)cc(c23)N[C@@H]1c1ccc(F)cc1 + CN1CCN(c2cc(C(=O)Nc3cc4cc(-c5cnn(C)c5)ccc4cn3)ccn2)CC1")
"> 9.50"
>>> recorded_measurement("O=C(c1cc(Cc2n[nH]c(=O)c3ccccc23)ccc1F)N1CCN(C(=O)C2CC2)CC1 + CN1CCN(c2cc(C(=O)Nc3cc4cc(-c5cnn(C)c5)ccc4cn3)ccn2)CC1")
"> 7.50"
>>> recorded_measurement("Nc1ccccc1NC(=O)c1ccc(CNC(=O)OCc2cccnc2)cc1 + CN1CCN(c2cc(C(=O)Nc3cc4cc(-c5cnn(C)c5)ccc4cn3)ccn2)CC1")
"> 7.50"
>>> recorded_measurement("O=c1[nH]cc(F)c(=O)[nH]1 + CN1CCN(c2cc(C(=O)Nc3cc4cc(-c5cnn(C)c5)ccc4cn3)ccn2)CC1")
"> 7.50"
>>> recorded_measurement("O=C(c1cc(Cc2n[nH]c(=O)c3ccccc23)ccc1F)N1CCN(C(=O)C2CC2)CC1 + CNC(=O)c1ccc(Nc2nc(OC3CCCC3)c3c(-c4ccc5nc(C)oc5c4)c[nH]c3n2)c(OC)c1")
"> 7.50"
>>> recorded_measurement("COC1C=CCC(C)C(C)S(=O)(=O)NC(=O)c2ccc3c(c2)N(CC2CCC21)CC1(CCCc2cc(Cl)ccc21)CO3 (stereo unspecified) + CN1CCN(c2cc(C(=O)Nc3cc4cc(-c5cnn(C)c5)ccc4cn3)ccn2)CC1")
"> 7.50"
>>> recorded_measurement("CC(CO)NC(=O)c1cc(-c2ccc(Cl)cc2)nn(-c2cnn(C)c2)c1=O (stereo unspecified) + CNC(=O)c1ccc(Nc2nc(OC3CCCC3)c3c(-c4ccc5nc(C)oc5c4)c[nH]c3n2)c(OC)c1")
"> 7.50"
>>> recorded_measurement("CCc1c2c(nc3ccc(O)cc13)-c1cc3c(c(=O)n1C2)COC(=O)[C@]3(O)CC + CN1CCN(c2cc(C(=O)Nc3cc4cc(-c5cnn(C)c5)ccc4cn3)ccn2)CC1")
"> 8.50"
>>> recorded_measurement("COC1C=CCC(C)C(C)S(=O)(=O)NC(=O)c2ccc3c(c2)N(CC2CCC21)CC1(CCCc2cc(Cl)ccc21)CO3 (stereo unspecified) + CNC(=O)c1ccc(Nc2nc(OC3CCCC3)c3c(-c4ccc5nc(C)oc5c4)c[nH]c3n2)c(OC)c1")
"> 7.50"
>>> recorded_measurement("C#Cc1c(F)ccc2cc(O)cc(-c3ncc4c(N5CC6CCC(C5)N6)nc(OCC56CCCN5CC(F)C6)nc4c3F)c12 (stereo unspecified) + CNC(=O)c1ccc(Nc2nc(OC3CCCC3)c3c(-c4ccc5nc(C)oc5c4)c[nH]c3n2)c(OC)c1")
"> 7.50"
>>> recorded_measurement("C=CC(=O)N1CCN(c2nc(=O)n(-c3c(C)ccnc3C(C)C)c3nc(-c4c(O)cccc4F)c(F)cc23)C(C)C1 (stereo unspecified) + CN1CCN(c2cc(C(=O)Nc3cc4cc(-c5cnn(C)c5)ccc4cn3)ccn2)CC1")
"> 7.50"
